# System name: human ether-à-go-go-related gene (hERG) potassium channel (human, UniProt Q12809);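 also: peak tail current of the secondary pulse compared with the same well before compound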
# Sequence (Q12809 whole entry, looked up): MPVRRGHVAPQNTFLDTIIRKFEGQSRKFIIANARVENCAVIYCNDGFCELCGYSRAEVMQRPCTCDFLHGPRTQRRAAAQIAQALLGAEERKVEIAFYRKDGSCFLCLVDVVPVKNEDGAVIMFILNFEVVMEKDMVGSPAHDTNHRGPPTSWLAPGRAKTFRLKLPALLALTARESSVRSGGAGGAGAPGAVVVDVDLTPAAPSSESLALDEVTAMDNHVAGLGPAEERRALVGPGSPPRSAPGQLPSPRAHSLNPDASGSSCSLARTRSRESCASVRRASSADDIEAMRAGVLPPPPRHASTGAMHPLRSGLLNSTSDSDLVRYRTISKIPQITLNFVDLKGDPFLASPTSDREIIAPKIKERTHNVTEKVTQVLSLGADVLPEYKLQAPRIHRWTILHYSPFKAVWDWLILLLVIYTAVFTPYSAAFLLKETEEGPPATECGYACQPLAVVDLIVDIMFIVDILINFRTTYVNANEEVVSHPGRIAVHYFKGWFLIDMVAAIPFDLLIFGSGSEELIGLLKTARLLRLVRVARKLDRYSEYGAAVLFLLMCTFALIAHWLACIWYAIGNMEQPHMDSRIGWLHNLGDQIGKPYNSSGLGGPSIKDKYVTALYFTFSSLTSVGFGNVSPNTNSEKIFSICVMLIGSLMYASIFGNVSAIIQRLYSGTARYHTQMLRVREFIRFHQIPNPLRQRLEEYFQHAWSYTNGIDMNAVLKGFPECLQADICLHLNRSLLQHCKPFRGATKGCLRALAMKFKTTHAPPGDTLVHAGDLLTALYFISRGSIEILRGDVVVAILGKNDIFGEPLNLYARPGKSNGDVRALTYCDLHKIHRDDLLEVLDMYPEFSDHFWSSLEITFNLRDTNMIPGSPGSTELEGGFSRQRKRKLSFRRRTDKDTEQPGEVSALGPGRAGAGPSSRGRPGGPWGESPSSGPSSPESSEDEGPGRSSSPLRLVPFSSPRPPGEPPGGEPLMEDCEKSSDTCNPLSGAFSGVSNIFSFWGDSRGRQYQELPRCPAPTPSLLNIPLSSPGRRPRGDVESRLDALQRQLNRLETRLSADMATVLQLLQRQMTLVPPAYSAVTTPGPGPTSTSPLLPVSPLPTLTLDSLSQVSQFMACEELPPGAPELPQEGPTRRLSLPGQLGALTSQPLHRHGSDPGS
# Run description: primary screen, population patch clamp on CHO cells stably expressing hERG; higher = less effect of the substance
In all, about 310,000 compounds went through this assay and about 14,000 (4.5%) showed an effect of 50% or more. Effects have a minus sign here. The sample holds strong results, similar compounds and a random draw of the others, so the mix is not that of the screen.
Recorded metric: hERG current change (%, negative = inhibition) at 10uM
The reply should read as a number followed by its unit.

INPUT: Given CC1(c2ccccc2)NC(=O)N(CC(=O)Nc2cc(S(=O)(=O)N3CCOCC3)ccc2Cl)C1=O (stereo not drawn) , respond with its hERG current change (%, negative = inhibition) at 10uM.
OUTPUT: -7.82%

INPUT: Given CCc1ccc(CCOc2ccc(CC3SC(=O)NC3=O)cc2)nc1.Cl (stereo not drawn) , respond with its hERG current change (%, negative = inhibition) at 10uM.
OUTPUT: 4.26%

INPUT: Given COc1ccc(OC)c(NC(=O)c2nc(-c3ccccc3)oc2C)c1 , respond with its hERG current change (%, negative = inhibition) at 10uM.
OUTPUT: -6.31%

INPUT: Given CCc1nc(N2CCN(C(=O)c3ccco3)CC2)c2c3c(sc2n1)CCCC3 , respond with its hERG current change (%, negative = inhibition) at 10uM.
OUTPUT: -65.3%

INPUT: Given Cc1nc(N2CCOCC2)c2c3c(sc2n1)CCC3 , respond with its hERG current change (%, negative = inhibition) at 10uM.
OUTPUT: 10.4%

INPUT: Given COc1ccc(C(=O)c2coc3ccc(O)c(CN(C)C)c23)cc1 , respond with its hERG current change (%, negative = inhibition) at 10uM.
OUTPUT: -57.9%

INPUT: Given COc1ccc(C(O)c2coc3ccc(O)c(CN(C)C)c23)cc1 (stereo not drawn) , respond with its hERG current change (%, negative = inhibition) at 10uM.
OUTPUT: -47.9%

INPUT: Given CC(=O)N1CCN(c2nc(C)nc3sc4c(c23)CCC(C)C4)CC1 (stereo not drawn) , respond with its hERG current change (%, negative = inhibition) at 10uM.
OUTPUT: -19.3%

INPUT: Given Cc1nc(N2CCN(C(=O)c3ccco3)CC2)c2c3c(sc2n1)CC(C)CC3 (stereo not drawn) , respond with its hERG current change (%, negative = inhibition) at 10uM.
OUTPUT: -63.9%

INPUT: Given COc1ccc(C(=O)c2coc3ccc(OC(C)=O)cc23)cc1 , respond with its hERG current change (%, negative = inhibition) at 10uM.
OUTPUT: 24.9%

INPUT: Given COc1ccc(Oc2coc3c(CN(C)C)c(O)ccc3c2=O)cc1 , respond with its hERG current change (%, negative = inhibition) at 10uM.
OUTPUT: 17.7%

INPUT: Given Cc1nc(NCc2ccc3c(c2)OCO3)c2nnn(Cc3ccccc3)c2n1 , respond with its hERG current change (%, negative = inhibition) at 10uM.
OUTPUT: -13.9%

INPUT: Given CCOc1ccc(S(=O)(=O)N2CCOCC2)cc1NC(=O)CN1C(=O)NC(C)(c2ccccc2)C1=O (stereo not drawn) , respond with its hERG current change (%, negative = inhibition) at 10uM.
OUTPUT: -52.6%

INPUT: Given Cc1nc2sccn2c(=O)c1CCN1CCC(=C(c2ccccc2)c2ccc(F)cc2)CC1 , respond with its hERG current change (%, negative = inhibition) at 10uM.
OUTPUT: -78%

INPUT: Given CCOC(=O)c1cnc(SCC(=O)Nc2ccccc2C(=O)OC)nc1N , respond with its hERG current change (%, negative = inhibition) at 10uM.
OUTPUT: -13.1%

INPUT: Given CC(=O)c1cccc(NC(=O)COc2ccc(S(=O)(=O)N3CCOCC3)cc2)c1 , respond with its hERG current change (%, negative = inhibition) at 10uM.
OUTPUT: -10.1%

INPUT: Given CCOc1ccc(S(=O)(=O)N2CCOCC2)cc1NC(=O)CN1C(=O)NC2(CCCC2)C1=O , respond with its hERG current change (%, negative = inhibition) at 10uM.
OUTPUT: 5.87%

INPUT: Given N#CCCN(C(=O)COC(=O)c1ccc2c(c1)NC(=O)CS2)c1ccc2c(c1)OCCO2 , respond with its hERG current change (%, negative = inhibition) at 10uM.
OUTPUT: -22.8%

INPUT: Given CCCNC(=S)N1CCN(c2nc(C)nc3sc4c(c23)CCCC4)CC1 , respond with its hERG current change (%, negative = inhibition) at 10uM.
OUTPUT: -31.5%

INPUT: Given CCOc1ccccc1NC(=O)N1CCC(C(=O)c2ccc(F)cc2)CC1 , respond with its hERG current change (%, negative = inhibition) at 10uM.
OUTPUT: -32%

INPUT: Given CCCCc1c(O)nc2sccn2c1=O , respond with its hERG current change (%, negative = inhibition) at 10uM.
OUTPUT: -2%

INPUT: Given CCOc1ccc(S(=O)(=O)N2CCOCC2)cc1NC(=O)CN1C(=O)NC(CC)(c2ccccc2)C1=O (stereo not drawn) , respond with its hERG current change (%, negative = inhibition) at 10uM.
OUTPUT: -73.5%

INPUT: Given CC1CCc2c(sc3nc(C4CC4)nc(N4CCN(C(=O)c5ccco5)CC4)c23)C1 (stereo not drawn) , respond with its hERG current change (%, negative = inhibition) at 10uM.
OUTPUT: -19.2%

INPUT: Given Cc1nc(N2CCN(C(=O)c3cccs3)CC2)c2c3c(sc2n1)CCCC3 , respond with its hERG current change (%, negative = inhibition) at 10uM.
OUTPUT: -63.8%

INPUT: Given Oc1c(C(c2ccco2)N2CCC3(CC2)OCCO3)sc2ncnn12 (stereo not drawn) , respond with its hERG current change (%, negative = inhibition) at 10uM.
OUTPUT: 1.38%

INPUT: Given CC(O)CNCCCOc1ccccc1OCc1ccccc1.O=C(O)C(=O)O (stereo not drawn) , respond with its hERG current change (%, negative = inhibition) at 10uM.
OUTPUT: -36.7%

INPUT: Given Cc1ccccc1NC(=O)c1ccc(Cl)c(NC(=O)c2ccncc2)c1 , respond with its hERG current change (%, negative = inhibition) at 10uM.
OUTPUT: -32.1%

INPUT: Given O=C(NC(=S)Nc1ccc(N2CCOCC2)cc1)c1cncc(Br)c1 , respond with its hERG current change (%, negative = inhibition) at 10uM.
OUTPUT: 19.5%

INPUT: Given CC(C)Oc1ccccc1OCCN(C)C.O=C(O)C(=O)O , respond with its hERG current change (%, negative = inhibition) at 10uM.
OUTPUT: 6.22%

INPUT: Given CN(C)CCC(Oc1ccccc1OCc1ccccc1)c1ccccc1.O=C(O)C(=O)O (stereo not drawn) , respond with its hERG current change (%, negative = inhibition) at 10uM.
OUTPUT: -68.6%

INPUT: Given CCC1(c2ccccc2)NC(=O)N(CC(=O)Nc2cc(S(=O)(=O)N3CCCCC3)ccc2OC(C)C)C1=O (stereo not drawn) , respond with its hERG current change (%, negative = inhibition) at 10uM.
OUTPUT: -5.02%

INPUT: Given O=C(Nc1ccccc1F)C1(c2ccccc2)CC1(Cl)Cl (stereo not drawn) , respond with its hERG current change (%, negative = inhibition) at 10uM.
OUTPUT: -70%

INPUT: Given COc1ccc(C(=O)c2coc3ccc(O)cc23)cc1 , respond with its hERG current change (%, negative = inhibition) at 10uM.
OUTPUT: 7.61%

INPUT: Given COc1ccc(NC(=O)NC2(C(=O)N3CCN(C)CC3)CCCCC2)cc1 , respond with its hERG current change (%, negative = inhibition) at 10uM.
OUTPUT: 9.88%

INPUT: Given COc1ccc2occ(C(=O)c3coc4ccc(O)c(CN(C)C)c34)c2c1.Cl , respond with its hERG current change (%, negative = inhibition) at 10uM.
OUTPUT: -72.1%

INPUT: Given Cc1ccc(Cn2nnnc2CN2CCC(O)(c3ccccc3F)CC2)cc1 , respond with its hERG current change (%, negative = inhibition) at 10uM.
OUTPUT: -21.5%

INPUT: Given Cc1nc2sccn2c(=O)c1CCN1CCC(=C(c2ccc(F)cc2)c2ccc(F)cc2)CC1 , respond with its hERG current change (%, negative = inhibition) at 10uM.
OUTPUT: -78.6%

INPUT: Given Cc1ccccc1NC(=O)N1CCC(C(=O)c2ccc(F)cc2)CC1 , respond with its hERG current change (%, negative = inhibition) at 10uM.
OUTPUT: -16.3%

INPUT: Given COc1ccc(OC)c(C(O)c2coc3ccc(O)c(CN(C)C)c23)c1 (stereo not drawn) , respond with its hERG current change (%, negative = inhibition) at 10uM.
OUTPUT: -17%
